Biological target: MASP-2 CCP2-SP (Homo sapiens (Human))
Assay: MASP-2 co-crystallization, X-ray crystallography and structure analysis (H-bonds, van der Waals contacts)
Set-up: unit not given beside the values
Details: Table A5-1 pharmacophore: distance between elements, S2/S1 region
Description: This example illustrates the preparation of recombinant MASP-2 protein, based on UniProt O00187, human mannan-binding lectin serine protease 2. Expression constructs for human MASP-2 CCP2-SP and CCP2-SP-6HIS were generated for recombinant expression in E. coli cells. […]
Counter-ions that a name gives are not always drawn.
So I've got a bunch of compounds here, and I need their d(H4,O2) values.
Reply with just the number.

// sample C[C@H](NC(=O)[C@H]1C[C@@H](c2ccccc2)CCN1)C(=O)NCc1cc(Cl)ccc1O.Cl [1078_11] , its d(H4,O2) was 2.51

// sample C[C@H](NC(=O)[C@H]1Cc2c([nH]c3ccccc23)CN1)C(=O)NCc1ccc(C(=N)N)cc1.Cl.Cl [1097_1] , its d(H4,O2) was 3.35

// sample `Cc1nc(N)ccc1CNC(=O)[C@H](C)NC(=O)[C@H]1C[C@@H](c2ccccc2)CCN1C` , its d(H4,O2) was 3.79

// sample CC(NC(=O)C1CC(Cc2ccccc2)CN1)C(=O)NCc1cnc2c(c1)c(Cl)cn2C.Cl.Cl (stereo not shown) [1450_B] , its d(H4,O2) was 3.46

// sample Cc1cccc([C@H]2CN[C@@H](C(=O)N[C@@H](C)C(=O)NCc3ccc(N)nc3C)C2)c1 [compound 1257, Dihydrochloride] , its d(H4,O2) was 3.84

// sample Cc1nc(N)ccc1CNC(=O)C(C)NC(=O)C1CC(c2cccc3ccccc23)CCN1.Cl.Cl (stereo not shown) [1297_6] , its d(H4,O2) was 4.26

// sample C[C@H](NC(=O)[C@H]1C[C@@H](c2ccccc2)CCN1)C(=O)NCc1cc(Cl)ccc1O.Cl [1078_12] , its d(H4,O2) was 3.40

* * *

Target: MASP-2 CCP2-SP (Homo sapiens (Human))
Assay: MASP-2 co-crystallization, X-ray crystallography and structure analysis (H-bonds, van der Waals contacts)
Conditions: Table A6-1 pharmacophore angle
endpoint.label: a(C5, CA1, O1)
Reply with just the number.

// sample C[C@H](NC(=O)[C@H]1C[C@@H](c2ccccc2)CCN1)C(=O)NCc1cc(Cl)ccc1O.Cl [1078_5] , its a(C5, CA1, O1) was 164.79

// sample C[C@H](NC(=O)[C@H]1C[C@H](Cc2ccccc2)CN1)C(=O)NCc1cnc2[nH]cc(Cl)c2c1 [compound 1334] , its a(C5, CA1, O1) was 150.49

// sample C[C@H](NC(=O)[C@H]1C[C@@H](c2ccccc2)CCN1)C(=O)NCc1cnc2[nH]cc(Cl)c2c1 [compound 1433] , its a(C5, CA1, O1) was 151.25

// sample C[C@H](NC(=O)[C@H]1C[C@@H](c2ccccc2)CCN1)C(=O)NCc1cc(Cl)ccc1O.Cl [1078_10] , its a(C5, CA1, O1) was 160.63

// sample Cc1cc(Cl)cc(CNC(=O)[C@H](C)NC(=O)[C@H]2C[C@H](Cc3ccccc3)CN2)c1O [compound 1307] , its a(C5, CA1, O1) was 161.35

// sample CC(NC(=O)C1CC(Cc2ccccc2)CN1)C(=O)NCc1cnc2c(c1)c(Cl)cn2C.Cl.Cl (mixture of isomers) [1450_A] , its a(C5, CA1, O1) was 150.97

// sample C[C@H](NC(=O)[C@H]1C[C@@H](c2ccccc2)CCN1)C(=O)NCc1cc(Cl)ccc1O.Cl [1078_6] , its a(C5, CA1, O1) was 152.72

// sample C[C@H](NC(=O)[C@H]1C[C@@H](c2ccccc2)CCN1)C(=O)NCc1cc(Cl)ccc1O.Cl [1078_11] , its a(C5, CA1, O1) was 161.80

// sample C[C@H](NC(=O)[C@H]1C[C@@H](c2ccccc2)CCN1)C(=O)NCc1cc(Cl)ccc1O.Cl [1078_2] , its a(C5, CA1, O1) was 159.94

// sample C[C@H](NC(=O)[C@H]1C[C@@H](c2ccccc2)CCN1)C(=O)NCc1cc(Cl)ccc1O.Cl [1078_14] , its a(C5, CA1, O1) was 159.36

// sample C[C@H](NC(=O)[C@H]1C[C@@H](c2ccccc2)CCN1)C(=O)NCc1cc(Cl)ccc1O.Cl [1078_7] , its a(C5, CA1, O1) was 158.86

// sample C[C@H](NC(=O)[C@H]1C[C@@H](c2ccccc2)CCN1)C(=O)NCc1cc(Cl)ccc1O.Cl [1078_13] , its a(C5, CA1, O1) was 162.99

// sample CC(NC(=O)C1CC(Cc2ccccc2)CN1)C(=O)NCc1cnc2c(c1)c(Cl)cn2C.Cl.Cl (stereo not drawn) [1450_B] , its a(C5, CA1, O1) was 150.20

// sample C[C@H](NC(=O)[C@H]1C[C@@H](c2ccccc2)CCN1)C(=O)NCc1cc(Cl)ccc1O.Cl [1078_4] , its a(C5, CA1, O1) was 161.60

// sample C[C@H](NC(=O)[C@H]1C[C@@H](c2ccccc2)CCN1)C(=O)NCc1cc(Cl)ccc1O.Cl [1078_9] , its a(C5, CA1, O1) was 161.68

// sample C[C@H](NC(=O)[C@H]1C[C@@H](c2ccccc2)CCN1)C(=O)NCc1cc(Cl)ccc1O.Cl [1078_3] , its a(C5, CA1, O1) was 162.08

// sample C[C@H](NC(=O)[C@H]1C[C@@H](c2ccccc2)CCN1)C(=O)NCc1cc(Cl)ccc1O.Cl [1078_1] , its a(C5, CA1, O1) was 160.22

// sample C[C@H](NC(=O)[C@H]1C[C@@H](c2ccccc2)CCN1)C(=O)NCc1cc(Cl)ccc1O.Cl [1078_8] , its a(C5, CA1, O1) was 159.05

// sample C[C@H](NC(=O)[C@H]1C[C@@H](c2ccccc2)CCN1)C(=O)NCc1cc(Cl)ccc1O.Cl [1078_16] , its a(C5, CA1, O1) was 161.46

// sample C[C@H](NC(=O)[C@H]1C[C@@H](c2ccccc2)CCN1)C(=O)NCc1cc(Cl)ccc1O.Cl [1078_12] , its a(C5, CA1, O1) was 161.92

// sample C[C@H](NC(=O)[C@H]1C[C@@H](c2ccccc2)CCN1)C(=O)NCc1cc(Cl)ccc1O.Cl [1078_15] , its a(C5, CA1, O1) was 160.41

* * *

Target: MASP-2 CCP2-SP (Homo sapiens (Human), UniProt O00187)
Sequence (O00187 445-686): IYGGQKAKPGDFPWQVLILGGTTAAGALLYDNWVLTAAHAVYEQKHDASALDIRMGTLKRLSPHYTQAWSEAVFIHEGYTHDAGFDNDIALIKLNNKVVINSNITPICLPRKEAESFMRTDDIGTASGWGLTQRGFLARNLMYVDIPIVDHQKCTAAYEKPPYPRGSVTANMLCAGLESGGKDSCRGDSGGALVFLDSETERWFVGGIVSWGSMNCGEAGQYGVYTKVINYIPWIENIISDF
Sequence (O00187 364-432 partner): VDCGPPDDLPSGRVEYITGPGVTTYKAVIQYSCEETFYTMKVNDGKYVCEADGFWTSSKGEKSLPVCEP
Test: MASP-2 co-crystallization, X-ray crystallography and structure analysis (H-bonds, van der Waals contacts)
Conditions: Table A1 (H-Bonds); GLN 665 OE1
So I've got a bunch of compounds here, and I need their H-bond distance to MASP-2 GLN 665 atom OE1 values.
Reply with just the number.

# `CC(=O)Nc1ccc(CCN[C@H](CCc2ccccc2)C(=O)N[C@@H](C)C(=O)NCc2ccc(C(=N)N)cc2)cc1` with MASP-2 CCP2-SP (Homo sapiens (Human), UniProt O00187): H-bond distance to MASP-2 GLN 665 atom OE1 is 2.63

# `N=C(N)c1ccc(CNC(=O)[C@@H]2CCN2C(=O)[C@H](NCC(=O)O)C2Cc3ccccc3C2)cc1` with MASP-2 CCP2-SP (Homo sapiens (Human), UniProt O00187): H-bond distance to MASP-2 GLN 665 atom OE1 is 2.76

# `N=C(N)c1ccc(CNC(=O)[C@@H]2CCN2C(=O)[C@H]2Cc3ccccc3CN2)cc1` with MASP-2 CCP2-SP (Homo sapiens (Human), UniProt O00187): H-bond distance to MASP-2 GLN 665 atom OE1 is 3.26

# `CNC(=O)c1ccc2c(=O)n(Cc3ccccc3)c(=O)n(CC(=O)NCc3ccc(C(=N)N)cc3)c2c1` with MASP-2 CCP2-SP (Homo sapiens (Human), UniProt O00187): H-bond distance to MASP-2 GLN 665 atom OE1 is 2.56

* * *

Target: MASP-2 CCP2-SP (Homo sapiens (Human))
Test: MASP-2 co-crystallization, X-ray crystallography and structure analysis (H-bonds, van der Waals contacts)
Parameters: unit not given beside the values
Settings: Table A2-1
Structures can show the parent of a compound that is named as a salt.
So I've got a bunch of molecules here, and I need their van der Waals contact distance, MASP-2 HIS 483 atom NE2 values.

// sample Cc1nc(N)ccc1CNC(=O)[C@H](C)NC(=O)[C@H]1C[C@@H](c2ccccc2)CCN1 [compound 1253, Dihydrochloride] , its van der Waals contact distance, MASP-2 HIS 483 atom NE2 was 3.66

// sample `C[C@H](NC(=O)[C@H]1C[C@@H](c2ccccc2)CCN1)C(=O)NCc1cc(Cl)ccc1O` , its van der Waals contact distance, MASP-2 HIS 483 atom NE2 was 3.28

// sample `C[C@H](NC(=O)[C@H](N)CCCc1ccccc1)C(=O)NCc1ccc(C(=N)N)cc1` , its van der Waals contact distance, MASP-2 HIS 483 atom NE2 was 3.56

// sample Cc1nc(N)ccc1CNC(=O)[C@H](C)NC(=O)[C@H]1C[C@H](Cc2ccccc2-c2ccccc2)CN1 [compound 1373, Di-trifluoroacetate salt] , its van der Waals contact distance, MASP-2 HIS 483 atom NE2 was 3.62

// sample `CC(=O)Nc1ccc(CCN[C@H](CCc2ccccc2)C(=O)N[C@@H](C)C(=O)NCc2ccc(C(=N)N)cc2)cc1` , its van der Waals contact distance, MASP-2 HIS 483 atom NE2 was 3.37

// sample `CNC(=O)c1ccc2c(=O)n(Cc3ccccc3)c(=O)n(CC(=O)NCc3ccc(C(=N)N)cc3)c2c1` , its van der Waals contact distance, MASP-2 HIS 483 atom NE2 was 3.87

// sample `Cc1nc(N)ccc1CNC(=O)[C@H](C)NC(=O)[C@H]1C[C@@H](Cc2ccccc2)CCN1` , its van der Waals contact distance, MASP-2 HIS 483 atom NE2 was 3.67
